- Experimental details: chemical genetic growth profiling, strain panel (AID 1159580);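 note: tested at 20 µM; growth read once vehicle control cultures reached saturation at 30 °C; 1 = growth at the plate median or of vehicle wells; lower values mean less growth of the strain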
- Measurement parameters: S. cerevisiae deletion strains, growth OD, locus YKR001C, strain vps1, hits give low values
The whole screen tested about 5,500 compounds, of which about 2,000 (36%) were called active. Roughly 18% stayed inconclusive and do not appear here. The list shows a part of the results.
We label by threshold. Values of normalized growth strictly beneath 1 are Satisfied. Values of 1 and up are Not satisfied.

# example entries with known answers
compound=CCCCOc1ccc(OCCCN2CCOCC2)cc1 classification=Satisfied
compound="Cc1ccc(C(=O)C(C)CN2CCCCC2)cc1 (stereo unspecified)" classification="Not satisfied"
compound=Oc1c(Cl)c(Cl)c(Cl)c(Cl)c1Cl classification=Satisfied
compound="COc1cc2c(cc1OC)C(=O)C(CC1CCN(Cc3ccccc3)CC1)C2 (stereo unspecified)" classification=Satisfied
compound=CCCCOc1ccc(C(=O)CCN2CCCCC2)cc1 classification=Satisfied

Turning now to a further record.
Is 1 strictly greater than the compound's reported normalized growth? compound: COC(=O)c1c(Cl)c(Cl)c(C(=O)OC)c(Cl)c1Cl
Not satisfied

###

- Experimental details: chemical genetic growth profiling, strain panel (AID 1159580);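 note: tested at 20 µM; growth read once vehicle control cultures reached saturation at 30 °C; 1 = growth at the plate median or of vehicle wells; lower values mean less growth of the strain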
- Measurement parameters: S. cerevisiae deletion strains, growth OD, locus YOR136W, strain idh2
In all, about 5,500 compounds went through this assay and about 2,000 (36%) were called active. Roughly 18% stayed inconclusive and do not appear here. Cut-off read from the data, not from the text of the source: active = normalized growth mostly below about 0.91 (no sharp cut-off); inconclusive = no clear call, values can overlap the other calls; inactive = mostly above about 0.92. The list shows a part of the results.
Respond using exactly one of the listed classes: yes for active, no for inactive

# example entries with known answers
compound=COC(=O)c1c(Cl)c(Cl)c(C(=O)OC)c(Cl)c1Cl classification=no
compound=COc1cc(O)c2c(=O)cc(C)oc2c1CC=C(C)C classification=no
compound=NC/C=C/C(=O)O classification=no

Hi, do you know how O=C(O)C1CC([C@@H]2CCCCN2)CN2CCCCC12 (some centres not stated) came out in this test?
no

Hi, do you know how CC(=O)O[C@@](C)(CCC=C(C)C)C1CC=C(C)CC1 (some centres not stated) came out in this test?
no

###

- Experimental details: chemical genetic growth profiling, strain panel (AID 1159580);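 note: tested at 20 µM; growth read once vehicle control cultures reached saturation at 30 °C; 1 = growth at the plate median or of vehicle wells; lower values mean less growth of the strain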
- Measurement parameters: S. cerevisiae deletion strains, growth OD, strain wtn01
The campaign covered roughly 5,500 compounds. About 2,000 (36%) were called active. Another 18% or so got no clear call; they are omitted. Rule as the data show it: active = normalized growth mostly below about 0.91 (no sharp cut-off); inconclusive = no clear call, values can overlap the other calls; inactive = mostly above about 0.92. The list shows a part of the results.
Respond using exactly one of the listed classes: yes (1) (active), no (0) (inactive)

# example entries with known answers
molecule=NC(=O)c1ncn([C@@H]2O[C@H](CO)[C@@H](O)[C@H]2O)c1O classification="no (0)"
molecule=O=C(/C=C/C=C/c1ccc2c(c1)OCO2)N1CCCCC1 classification="no (0)"
molecule="O=C1CC(c2ccccc2)Oc2ccccc21 (configuration not stated)" classification="no (0)"
molecule=Oc1ccc(O)cc1 classification="no (0)"
molecule=OCc1ccccc1O[C@@H]1O[C@H](CO)[C@@H](O)[C@H](O)[C@H]1O classification="no (0)"

Hi, do you know how OCC(O)Cc1ccc2c(c1)OCO2 (configuration not stated) came out in this test?
no (0)

Hi, do you know how CCOC(=O)/C=C(\C)OP(=O)(OC)OC came out in this test?
no (0)

Hi, do you know how C/C=C(/C(=C/C)c1ccc(O)cc1)c1ccc(O)cc1 came out in this test?
yes (1)

Hi, do you know how C=CC(C)(C)c1c2c(c(O)c3c(=O)c4ccc(O)c(O)c4oc13)C=CC(C)(C)O2 came out in this test?
yes (1)

Hi, do you know how Cc1c(N(C)C)c(=O)n(-c2ccccc2)n1C came out in this test?
no (0)

Hi, do you know how NC/C=C/C(=O)O came out in this test?
no (0)

Hi, do you know how O=C1C[C@@H](c2ccccc2)Oc2cc(O)cc(O)c21 came out in this test?
no (0)
